target.system: AVP-V1 sites (Rattus norvegicus, UniProt P30560)
Construct: crude membrane preparation of male rat liver (AVP-V1 sites); from tissue; host or cells: male rat liver, crude membranes
Sequence (P30560 whole entry): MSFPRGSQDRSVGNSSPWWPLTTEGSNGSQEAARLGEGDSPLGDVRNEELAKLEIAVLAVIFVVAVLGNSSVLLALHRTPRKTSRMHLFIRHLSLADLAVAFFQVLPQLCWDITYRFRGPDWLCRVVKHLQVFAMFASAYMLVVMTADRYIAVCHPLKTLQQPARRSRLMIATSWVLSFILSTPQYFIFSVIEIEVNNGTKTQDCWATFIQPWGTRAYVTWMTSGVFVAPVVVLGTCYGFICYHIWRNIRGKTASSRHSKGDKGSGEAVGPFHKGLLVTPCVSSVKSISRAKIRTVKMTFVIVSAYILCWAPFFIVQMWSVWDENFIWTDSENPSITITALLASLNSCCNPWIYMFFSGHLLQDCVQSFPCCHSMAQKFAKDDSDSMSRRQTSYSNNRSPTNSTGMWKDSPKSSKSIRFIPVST
assay.procedure: [^3 H]AVP binding to crude membrane preparation of male rat liver (AVP-V1 sites)
conditions: read-out: Receptor Binding Results IC50 (nM) [^3 H]-AVP-V1
Counter-ions that a name gives are not always drawn. Numbered stars: 1 amine (or outer) side, 2 acyl side, 3 side chain; on linkers, the order of the positions; unused ones are H or OH. Square brackets hold non-standard residues; d marks the D form. Peptide text beside a SMILES is read from it. dPiz(1,6-dehydro) = O=C(O)[C@H]1CCC=NN1; d2Nal = N[C@H](Cc1ccc2ccccc2c1)C(=O)O; dNMehPhe = CN[C@H](CCc1ccccc1)C(=O)O; Ethylenediamine = C(CN[*:2])N[*:1]; NMeI = CC[C@H](C)[C@H](NC)C(=O)O; Pip(4-aza) = O=C(O)[C@@H]1CNCCN1; dNMeF = CN[C@H](Cc1ccccc1)C(=O)O; Pip = O=C(O)[C@@H]1CCCCN1; dPip = O=C(O)[C@H]1CCCCN1; Orn = NCCC[C@H](N)C(=O)O
Quick rule for you: IC50 under 3000 nM gets Yes, anything else gets No.

Ask: Lab note: IC50 threshold 3000 nM. Does this compound come in strictly under it? CC[C@H](C)[C@@H]1NC(=O)[C@@H](Cc2c[nH]c3ccccc23)NC(=O)[C@@H]2CCCN2C(=O)[C@@H](Cc2ccccc2)N(C)C(=O)[C@@H]2CCCCN2C(=O)[C@H]2CCCCN2C1=O [Example 30] (cyclo(I[dPip][Pip][dNMeF]P[dW]))
Reply: No

Ask: Lab note: IC50 threshold 3000 nM. Does this compound come in strictly under it? CC[C@H](C)[C@@H]1NC(=O)[C@@H](Cc2ccccc2)NC(=O)[C@@H]2CCCN2C(=O)[C@@H](Cc2ccccc2)N(C)C(=O)[C@H](CC(=O)NCCN)NC(=O)[C@H]2CCCCN2C1=O [Example 119] (cyclo(D(Ethylenediamine)[dNMeF]P[dF]I[dPip]))
Reply: No

Ask: Lab note: IC50 threshold 3000 nM. Does this compound come in strictly under it? CC[C@H](C)[C@@H]1NC(=O)[C@@H](Cc2ccccc2)NC(=O)[C@@H]2CCCN2C(=O)[C@@H](Cc2ccccc2)N(C)C(=O)[C@H](CCCN)NC(=O)[C@H]2CCC=NN2C1=O [Example 125, acetate salt] (cyclo(I[dPiz(1,6-dehydro)][Orn][dNMeF]P[dF]))
Reply: Yes

Ask: Lab note: IC50 threshold 3000 nM. Does this compound come in strictly under it? CC[C@H](C)[C@H]1C(=O)N2CCCC[C@@H]2C(=O)N2CCCC[C@H]2C(=O)N(C)[C@H](Cc2ccccc2)C(=O)N2CCC[C@H]2C(=O)N(C)[C@H](CCc2ccccc2)C(=O)N1C [Example 166] (cyclo([NMeI][dPip][Pip][dNMeF]P[dNMehPhe]))
Reply: No

Ask: Lab note: IC50 threshold 3000 nM. Does this compound come in strictly under it? CC[C@H](C)[C@@H]1NC(=O)[C@@H](Cc2ccccc2)NC(=O)[C@@H]2CCCN2C(=O)[C@@H](Cc2cnc[nH]2)NC(=O)[C@@H]2CCCCN2C(=O)[C@H]2CCCCN2C1=O [Example 3] (cyclo(I[dPip][Pip][dH]P[dF]))
Reply: No

Ask: Lab note: IC50 threshold 3000 nM. Does this compound come in strictly under it? CC[C@H](C)[C@@H]1NC(=O)[C@@H](Cc2ccccc2)NC(=O)[C@@H]2CCCN2C(=O)[C@@H](Cc2ccccc2)N(C)C(=O)[C@H](CCCCN)NC(=O)[C@H]2CCC=NN2C1=O [Example 174] (cyclo(I[dPiz(1,6-dehydro)]K[dNMeF]P[dF]))
Reply: Yes

Ask: Lab note: IC50 threshold 3000 nM. Does this compound come in strictly under it? CC[C@H](C)[C@@H]1NC(=O)[C@@H](Cc2ccc3ccccc3c2)NC(=O)[C@@H]2CCCN2C(=O)[C@@H](Cc2c[nH]cn2)NC(=O)[C@@H]2CNCCN2C(=O)[C@H]2CCCCN2C1=O [Example 159] (cyclo(I[dPip][Pip(4-aza)][dH]P[d2Nal]))
Reply: No
